System: K-562 leukemia
testDetails: NCI tumour cell line growth inhibition, 48 h
Hi there, I'd appreciate the recorded TGI for every entry that follows.

Query string: Record lookup: for K-562 leukemia, what TGI belongs to `c1ccc2cc(C[n+]3ccn(CCCCCCCCCCCCn4cc[n+](Cc5ccc6ccccc6c5)c4)c3)ccc2c1` ?
Result string: 1.19 µM

Query string: Fill in the recorded TGI for this compound, with K-562 leukemia as test system: O/N=C1/C(=C/c2ccc(Cl)c(Cl)c2)CCCC1C(NO)c1ccc(Cl)c(Cl)c1 (centres undefined)
Result string: 63.6 µM

Query string: Form field - read-out: TGI; system: K-562 leukemia; submitted item: `O=C(Nc1nc(-c2ccc(Cl)cc2)cs1)c1cc(-c2ccc(Br)cc2)nc2ccc(Cl)cc12`
Result string: > 100 µM

Query string: Request: TGI, test system K-562 leukemia, entry COc1cc(OC)c2c(c1-c1ccc(C)cc1)CC(C)N(Cc1ccccc1)[C@H]2C (some centres undefined)
Result string: > 100 µM

Query string: Kindly state the measured TGI obtained for `O=C(Nc1ccc(OCc2nnc(-c3ccc(Cl)cc3)o2)c(F)c1)c1ccc(Cl)c(C(F)(F)F)c1` with K-562 leukemia.
Result string: > 50 µM

Query string: # returns recorded TGI (system: K-562 leukemia) for `CNCCCCN(C)/[N+]([O-])=N\O`
Result string: > 100 µM

Query string: Observed TGI on K-562 leukemia for CC1CCC(=O)NCCCCC(=O)N1 (centres undefined) , please.
Result string: > 100 µM

Query string: # value lookup — system K-562 leukemia, readout TGI, item `C=Cc1nc2nnc(CCCCCCCCc3nnc4nc(C=C)[nH]n34)n2[nH]1`
Result string: > 100 µM

Query string: I'm curious: which TGI was measured for `CC(C)(C)c1ccc(C(C)(C)C)c(N2C(=O)[C@@H]3[C@@H]4C=C[C@@H](C4)[C@]3(C)C2=O)c1` tested on K-562 leukemia?
Result string: > 100 µM

###

System: MDA-N
testDetails: NCI tumour cell line growth inhibition, 48 h
metricName: TGI (µM)
Give the value, in units of µM, as a plain number.

Query string: Record lookup: for MDA-N, what TGI belongs to `CN(C)CCCNC(=O)c1cc2/c(=C\c3ccc(N(C)C)cc3)c3ccccc3n2[n+]1C` ?
Result string: 78.4

Query string: API: value(readout=TGI, system=MDA-N) for record O=CN(CCN1CCCC1)C1CCc2cc(Cl)c(Cl)cc2C1 (stereo unspecified)
Result string: 23.4

Query string: Checklist item: TGI tested on MDA-N, entry `O=c1cc(-c2ccccc2)c2ccc(O)c(CN(CCCl)CCCl)c2o1` , value?
Result string: 35.1

###

System: KM12 colon
testDetails: NCI tumour cell line growth inhibition, 48 h
Consider the following molecules; for each one, report its TGI.
Provide the reading as a plain figure in µM.

Query string: Please provide the recorded TGI for O/N=C1/C(=C/c2ccc(Cl)c(Cl)c2)CCCC1C(NO)c1ccc(Cl)c(Cl)c1 (stereo not given) , tested on KM12 colon.
Result string: 31.9

Query string: // fetch KM12 colon TGI for `CCOC(=O)/C=C(/C(=O)OCC)n1cc(C)c(=O)n(/C(=C/C(=O)OCC)C(=O)OCC)c1=O`
Result string: 30.1

###

Test system: MALME-3M melanoma
testDetails: NCI tumour cell line growth inhibition, 48 h
metricName: TGI

Query string: Field request: TGI | item: `CC(C)=CCC/C(C)=C/CO`
Result string: > 100 µM

Query string: Returns the measured TGI for the input compound. Input: `COc1cc2c3c(n(CCCNCCNCCN)c(=O)c2cc1OC)-c1cc2c(cc1C3=O)OCO2`
Result string: 5.75 µM

Query string: For the compound shown here, `COc1cc(-c2ccc(-c3ccc(C(=N)N)cc3)s2)cc(OC)c1OC` , give the reported TGI.
Result string: 2.9 µM

Query string: Quick one: TGI for `COc1cc2c(cc1I)-c1c(cc(OC)c(OC)c1OC)CC[C@@H]2NC(C)=O` ?
Result string: 32 µM

Query string: Field request: TGI | item: `CCNC(=O)N(CC)CN(CC)C(=O)NCC`
Result string: > 100 µM

Query string: // lookup TGI for c1ccc(C2(c3ccccc3)SSC3(S2)C2CC4CC(C2)CC3C4)cc1 (stereo unspecified)
Result string: > 100 µM

Query string: Tell me the measured TGI of `COc1ccc(NC2=NCCO2)c2c1CCCC2` , please.
Result string: > 100 µM

Query string: TGI lookup needed for CN(C)C1C(=O)C(C(=O)NCN2CCCC2)=C(O)C2(O)C(=O)C3=C(O)c4c(O)cccc4C(C)(O)C3CC12 (stereo unspecified) , thanks.
Result string: 48.7 µM

Query string: Please give the measured TGI for this compound: `O=C(Cc1nc2ccccc2o1)C(=O)Nc1ccccc1C(F)(F)F`
Result string: > 100 µM

Query string: Name the recorded TGI for `C[N+](C)(C)CCN(Cc1cccs1)c1ccccn1` .
Result string: > 100 µM

Query string: Look at this compound and give its reported TGI. `CCOC(=O)C1=C(Cl)c2cccnc2C1=O`
Result string: > 100 µM
